Listing: PBM binding z-score of selected sequences
# Test system: PXR homodimer (NR concentration 270 nM)
# TEST DETAILS: PBM binding z-score (relative to random genomic background probes); higher = stronger binding; sequences stand for … in GC…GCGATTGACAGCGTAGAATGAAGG

[
  {
    "BIOPOLYMER SEQUENCE": "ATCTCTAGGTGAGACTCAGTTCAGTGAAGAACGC",
    "PBM binding z-score": 0.653
  },
  {
    "BIOPOLYMER SEQUENCE": "CCTTACGGGTCACGAGGTTAGAGCACGACGAGCG",
    "PBM binding z-score": -0.124
  },
  {
    "BIOPOLYMER SEQUENCE": "AATACAGGGTCACTAGGCCAGAGAAGGTACGAAT",
    "PBM binding z-score": 0.776
  },
  {
    "BIOPOLYMER SEQUENCE": "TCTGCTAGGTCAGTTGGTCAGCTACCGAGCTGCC",
    "PBM binding z-score": -0.891
  },
  {
    "BIOPOLYMER SEQUENCE": "CCGACTGAGGCAGAAAGGTTACCATACCATCCGG",
    "PBM binding z-score": -0.109
  },
  {
    "BIOPOLYMER SEQUENCE": "TCCATTAGTTGATTAGGGCAACCGAAACAGCGGA",
    "PBM binding z-score": 0.0879
  },
  {
    "BIOPOLYMER SEQUENCE": "TCATATAGGAAATACAGGTGAAAGTCGGCATCTA",
    "PBM binding z-score": 0.578
  },
  {
    "BIOPOLYMER SEQUENCE": "CAAACTAGGTCACCGGAAGGACAAAGTCCGCATG",
    "PBM binding z-score": 0.127
  },
  {
    "BIOPOLYMER SEQUENCE": "GCTACTAGGTCAGGTTGGTCAGCTAACGGGTACG",
    "PBM binding z-score": -0.0861
  },
  {
    "BIOPOLYMER SEQUENCE": "CGTCCAAGGTGAGCAGGTCAGTGAAAGCGACGTG",
    "PBM binding z-score": -0.516
  },
  {
    "BIOPOLYMER SEQUENCE": "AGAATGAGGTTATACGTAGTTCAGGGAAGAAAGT",
    "PBM binding z-score": 0.774
  },
  {
    "BIOPOLYMER SEQUENCE": "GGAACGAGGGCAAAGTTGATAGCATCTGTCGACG",
    "PBM binding z-score": -0.0271
  },
  {
    "BIOPOLYMER SEQUENCE": "AGAATGACGTTATACGTAGATCAGGGAAGAAAGT",
    "PBM binding z-score": 0.0404
  },
  {
    "BIOPOLYMER SEQUENCE": "TAGCCTAGGTCAGTCAGGGGCCAGTATAGAAAGC",
    "PBM binding z-score": -0.639
  },
  {
    "BIOPOLYMER SEQUENCE": "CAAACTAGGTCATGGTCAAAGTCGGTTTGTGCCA",
    "PBM binding z-score": -0.231
  },
  {
    "BIOPOLYMER SEQUENCE": "CGTCCAAGGTCAGAGGGGTCAGTGAATGCCGAGT",
    "PBM binding z-score": 9.87
  },
  {
    "BIOPOLYMER SEQUENCE": "CCGATTGGGGCAAGGTTACCATAACGCACAGCCA",
    "PBM binding z-score": -0.458
  },
  {
    "BIOPOLYMER SEQUENCE": "GGAACGTGGGCAAAGTTGATAGCATCTGTCGACG",
    "PBM binding z-score": -0.473
  },
  {
    "BIOPOLYMER SEQUENCE": "CCGACTGGGGCAGTAAGGTTACCATACCATCCGG",
    "PBM binding z-score": -0.0319
  },
  {
    "BIOPOLYMER SEQUENCE": "AATACAGGGTCGTCGTAGGCCAGAGTACGCACAG",
    "PBM binding z-score": 0.241
  },
  {
    "BIOPOLYMER SEQUENCE": "CGACAAAGTTCAACTAAGGTAACGTAAAGCACGC",
    "PBM binding z-score": 3.06
  },
  {
    "BIOPOLYMER SEQUENCE": "GCTGCTAAGTCAACTGATGGTCAGCTAAAGCTCG",
    "PBM binding z-score": -1.21
  },
  {
    "BIOPOLYMER SEQUENCE": "ACTCGGAGCACAAAGGTCAGAGCTACGCCAGTGA",
    "PBM binding z-score": 0.191
  },
  {
    "BIOPOLYMER SEQUENCE": "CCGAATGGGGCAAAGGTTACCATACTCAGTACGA",
    "PBM binding z-score": 0.114
  },
  {
    "BIOPOLYMER SEQUENCE": "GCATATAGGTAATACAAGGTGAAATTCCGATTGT",
    "PBM binding z-score": 0.0431
  },
  {
    "BIOPOLYMER SEQUENCE": "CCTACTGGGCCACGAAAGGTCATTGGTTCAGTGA",
    "PBM binding z-score": 3.04
  }
]

* * *

# Test system: VDR:RXRa (NR concentration 270 nM, RXRa partner concentration 90 nM)
# TEST DETAILS: PBM binding z-score (relative to random genomic background probes); higher = stronger binding; sequences stand for … in GC…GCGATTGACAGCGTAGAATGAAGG
Label Condition met when PBM binding z-score is at or above 2; otherwise label Condition not met.

[
  {
    "BIOPOLYMER SEQUENCE": "CCTATTAGTTGACCATAAGGGCACCCGAAGCTCG",
    "DISCRETE LABEL": "Condition not met"
  },
  {
    "BIOPOLYMER SEQUENCE": "ACAAACAGGTGATGAAGGTAACTCAGGCTATCAT",
    "DISCRETE LABEL": "Condition not met"
  },
  {
    "BIOPOLYMER SEQUENCE": "GGAACGAGGGCAAGATGATAGCAGAGTTTGATGG",
    "DISCRETE LABEL": "Condition not met"
  },
  {
    "BIOPOLYMER SEQUENCE": "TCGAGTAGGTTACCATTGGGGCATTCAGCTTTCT",
    "DISCRETE LABEL": "Condition not met"
  },
  {
    "BIOPOLYMER SEQUENCE": "TAGCCTAGGTCATGGGCCGGTATACCACGCGAAC",
    "DISCRETE LABEL": "Condition met"
  },
  {
    "BIOPOLYMER SEQUENCE": "AGAGACAGGTGAGTGAAGGTAACTCAGCTGGACG",
    "DISCRETE LABEL": "Condition not met"
  },
  {
    "BIOPOLYMER SEQUENCE": "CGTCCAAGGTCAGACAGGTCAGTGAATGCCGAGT",
    "DISCRETE LABEL": "Condition met"
  },
  {
    "BIOPOLYMER SEQUENCE": "CTCGAAAGGTTGGTTGAGGTGAGTATACGGATAA",
    "DISCRETE LABEL": "Condition not met"
  },
  {
    "BIOPOLYMER SEQUENCE": "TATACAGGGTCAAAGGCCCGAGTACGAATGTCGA",
    "DISCRETE LABEL": "Condition met"
  },
  {
    "BIOPOLYMER SEQUENCE": "ACTAGCAGGCCAAGGGTCACTAAAGATTAGTCCG",
    "DISCRETE LABEL": "Condition met"
  },
  {
    "BIOPOLYMER SEQUENCE": "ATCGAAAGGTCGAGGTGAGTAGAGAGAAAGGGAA",
    "DISCRETE LABEL": "Condition met"
  },
  {
    "BIOPOLYMER SEQUENCE": "ATATCAAGGTGATCGTGAGGTCGTTGATACTAAC",
    "DISCRETE LABEL": "Condition met"
  }
]
